# T/C annotations
Tested on: L1210 leukemia ip in BDF1 mice, survival T/C
Experiment: NCI In Vivo Anticancer Drug Screen. Data for tumor model L1210 Leukemia (intraperitoneal) in B6D2F1 (BDF1) mice
Details: endpoint: mean survival time; dose: 100.0 mg/kg/injection; schedule: Q04DX002 (ip); vehicle: gum acacia; higher = longer survival
Toxic doses and inconclusive results are not listed.

O=C(COc1ccc(Cl)cc1Cl)Nc1cc(Cl)ccc1Cl : 95 % of control
O=[N+]([O-])C12CCC(c3ccccc31)c1ccccc12 : 103 % of control
COc1ccc(OC)c(-c2cc(-c3ccccc3)nc(-c3cccc([N+](=O)[O-])c3)c2)c1 : 102 % of control

Next:
Q. Provide the documented T/C with L1210 leukemia ip in BDF1 mice, survival T/C as the system for O=C1C(c2ccccc2)=C(c2ccccc2)C(c2ccccc2)C1c1ccccc1 (centres undefined)
A. 100 % of control

Data provenance is PubChem BioAssay AID248.
